Origin of the recorded values: patent US20180127503A1

Listed here are binders together with their documented binding intensity.
Assayed system: T1, human ROR2 expressed on the cell surface (human, UniProt Q01974 34-943)
T1 construct: Endogenous ROR2 of human tumour cell lines; also called cell surface ROR2; ROR2 on tumour cell lines
T1 sequence (Q01974 34-943 limits assumed): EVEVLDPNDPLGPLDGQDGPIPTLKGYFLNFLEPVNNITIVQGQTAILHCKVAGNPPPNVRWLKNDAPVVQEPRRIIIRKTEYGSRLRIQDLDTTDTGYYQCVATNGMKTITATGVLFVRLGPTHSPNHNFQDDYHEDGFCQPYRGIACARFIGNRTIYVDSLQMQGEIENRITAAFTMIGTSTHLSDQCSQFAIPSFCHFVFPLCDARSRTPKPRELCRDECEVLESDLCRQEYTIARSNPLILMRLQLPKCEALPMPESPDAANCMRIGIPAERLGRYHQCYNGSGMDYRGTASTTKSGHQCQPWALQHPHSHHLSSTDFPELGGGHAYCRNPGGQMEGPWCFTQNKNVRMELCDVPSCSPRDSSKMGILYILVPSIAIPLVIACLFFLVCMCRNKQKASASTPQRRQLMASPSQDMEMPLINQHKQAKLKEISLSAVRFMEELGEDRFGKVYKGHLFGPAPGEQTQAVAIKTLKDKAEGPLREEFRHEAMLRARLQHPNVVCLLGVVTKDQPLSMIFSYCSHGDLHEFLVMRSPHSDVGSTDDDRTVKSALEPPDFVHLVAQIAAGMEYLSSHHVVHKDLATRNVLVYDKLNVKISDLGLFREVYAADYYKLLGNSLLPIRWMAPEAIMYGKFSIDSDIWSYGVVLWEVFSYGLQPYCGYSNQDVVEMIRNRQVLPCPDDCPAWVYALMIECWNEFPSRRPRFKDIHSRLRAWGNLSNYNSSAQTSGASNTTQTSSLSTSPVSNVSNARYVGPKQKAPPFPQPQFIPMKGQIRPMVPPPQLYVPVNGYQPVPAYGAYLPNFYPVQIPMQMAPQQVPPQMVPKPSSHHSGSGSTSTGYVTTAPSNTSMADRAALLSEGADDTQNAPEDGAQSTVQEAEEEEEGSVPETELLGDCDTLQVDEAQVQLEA
Assay name: flow cytometry, BE(2)S cells (neuroblastoma)
Design: unit not given here

Binder	binding intensity
ROR2-27 full length human IgG1 antibody (antibody, V domains shown, also called clone #27; clone #027 IgG1) VH: QVQLVESGAEVKKPGESLKISCKASGYSFSNYWIGWVRQMPGKGLEWMGIIYPDDSDTRYSPSFQGQVTISADKSISTAYLQWYSLKVADTAKYYCVRPRGAFDIWGQGTTVTVSS VL: QSVLTQPPSVSGAPGQRVTISCTGSSSNIGAGHAVHWYQQLPGTAPKLLIYDNANRPSGVPDRFSGSQSGTSASLAITGLQTGDEADYYCGTWDDSPSAYVFGTGTKVTVLG	21
ROR2-241 full length human IgG1 antibody (antibody, V domains shown) VH: EVQLVQSGAEVKKPGASVKVSCKASGYTFTNYYIHWVRQAPGQGLEWMGIINPTSGRTRYAQRFQGRVTMTRDTSTNTVYMDLSSLRSEDTAMYYCARSGYYWGVNGDQWGQGTLVTVSS VL: SYELTQPLSVSVALGQTARITCGGNNIGSKNVHWYQQKPGQAPVLVIYRDSNRPSGIPERFSGSNSGNTATLTISRAQAGDEADYYCQVWDSSIVVFGGGTKLTVLG	58
